Can you tell me solubility at 20 h for the items I'm about to list?
# assay.notes: Solubility test
# Assay type: physicochemical
# applied.conditions: pH 1.2, simulated gastric fluid, kinetic from dmso stock; first liquid for disintegration test of Japanese Pharmacopoeia, 25° C., shaking 20 hours
# Description: Test Example 3: Solubility Test To 13 μL of a 10 mM DMSO solution of a test material that had been prepared in advance was added exactly 1 mL of a first liquid for a disintegration test of Japanese Pharmacopoeia, followed by shaking at 25° C. for 20 hours, thereby giving a sample stock solution. Next, using a filter impregnated with 200 μL of the sample stock solution, 200 μL of a fresh sample stock solution was added for filtration to obtain a liquid, which was taken as a sample solution. […]
Numbers only, in µg/mL.

Examples with answers:
> print(dat)
                                   molecule   quantity.measured   unit  value.measured
1  O=C(NCCC[C@H](NC(=O)c1cccc(Cl)c1)C(=O)N[C@H]1CCC[C@H]1C(=O)O)OCc1ccccc1 [Example 32]  solubility at 20 h  µg/mL              46
2  O=C(NCCC[C@H](NC(=O)c1ccc2ccccc2n1)C(=O)N[C@H]1CCC[C@H]1C(=O)O)OCc1ccccc1 [Example 23]  solubility at 20 h  µg/mL              51
3  Cn1ccc2ccc(C(=O)N[C@@H](CCCNC(=O)OCc3ccccc3)C(=O)N[C@H]3CCC[C@H]3C(=O)O)cc21 [Example 25]  solubility at 20 h  µg/mL              26
4  CC(=O)c1cn(C)c2cc(C(=O)N[C@@H](CCCNC(=O)OCc3ccccc3)C(=O)N[C@H]3CCC[C@H]3C(=O)O)ccc12 [Example 60]  solubility at 20 h  µg/mL              40

We now examine a further molecule.
(Q) Using the record for Cn1ccc2c(C(=O)N[C@@H](CCCNC(=O)OCc3ccccc3)C(=O)N[C@H]3CCC[C@H]3C(=O)O)cccc21 [Example 50] , report its solubility at 20 h.
(A) 47
